Measurement Notes: Long-term/accelerated stability test of crystalline salt forms in sealed aluminum foil bags
Assay type: physicochemical
Setup Conditions: 25° C./60% RH, 2 months
The following compounds are listed with their measured Purity (%) values.
Experimental Endpoint: Purity (%)

{"Compound": "CC1COCCN1c1cc(C(C)(C)C#N)c2c(n1)c(-c1cc[nH]n1)nn2C.CC1COCCN1c1cc(C(C)(C)C#N)c2c(n1)c(-c1cc[nH]n1)nn2C.O=C(O)C(=O)O (centres unmarked) [Crystalline form a of oxalate]", "Experimental Endpoint": "Purity (%)", "Reported": 99.58}
{"Compound": "CC1COCCN1c1cc(C(C)(C)C#N)c2c(n1)c(-c1cc[nH]n1)nn2C.CS(=O)(=O)O (stereo not drawn) [Crystalline form α of mesylate]", "Experimental Endpoint": "Purity (%)", "Reported": 98.54}
{"Compound": "CC1COCCN1c1cc(C(C)(C)C#N)c2c(n1)c(-c1cc[nH]n1)nn2C.O=S(=O)(O)O (stereo not drawn) [Crystalline form α of sulfate]", "Experimental Endpoint": "Purity (%)", "Reported": 92.90}
{"Compound": "CC1COCCN1c1cc(C(C)(C)C#N)c2c(n1)c(-c1cc[nH]n1)nn2C.O=C(O)C=CC(=O)O (centres unmarked) [Crystalline form I of maleate]", "Experimental Endpoint": "Purity (%)", "Reported": 98.82}
{"Compound": "CC1COCCN1c1cc(C(C)(C)C#N)c2c(n1)c(-c1cc[nH]n1)nn2C.Cc1ccc(S(=O)(=O)O)cc1 (centres unmarked) [Crystalline form a of p-toluenesulfonate]", "Experimental Endpoint": "Purity (%)", "Reported": 98.07}

Data credit: patent US20240262823A1
